// values below are reported herbicidal effect rating, CYPSE
Test system: Cyperus serotinus, Rottb.
test.method.notes: Preemergence weed control under flooded paddy conditions, CYPSE (Flatsedge); note: meaning of each grade not given here
Format: in vivo
conditions.used: 0.1250 kg/ha, preemergence weeds, rated three to four weeks after treatment
Field format: numeric only.

Examples from the recorded data:
molecule	tgt	herbicidal effect rating, CYPSE
Cc1ccc(OCC(=O)OC(C)C(=O)O)c(-c2nsc3ccc(-n4c(=O)cc(C(F)(F)F)n(C)c4=O)cc23)c1 (racemic)	Cyperus serotinus, Rottb.	0.0
COCC(C)OC(=O)COc1ccc(C)cc1-c1nsc2ccc(-n3c(=O)cc(C(F)(F)F)n(C)c3=O)cc12 (racemic)	Cyperus serotinus, Rottb.	0.0
Cn1c(C(F)(F)F)cc(=O)n(-c2ccc3snc(C(Cl)Cl)c3c2)c1=O	Cyperus serotinus, Rottb.	2.0

In the following, a different molecule is considered.
Lookup: Reported herbicidal effect rating, CYPSE for "C#CCNC(=O)COc1ccc(C)cc1-c1noc2ccc(-n3c(=O)cc(C(F)(F)F)n(C)c3=O)cc12" : what is it?
Found: 0.0

###

Test system: Oryza sativa, (L.) Tebonnet
test.method.notes: Rice tolerance to post-transplant applications under flooded paddy conditions (Example 187), ORYSAT (Rice, Tebonnet); note: meaning of each grade not given here
conditions.used: Rate 0.1250 kg/ha, rated 3-4 weeks after treatment
herbicidal effect rating ORYSAT values for the compounds below.
Lab note: write the figure by itself, no unit.

Below, 4 compounds whose answers are already recorded.
compound	herbicidal effect rating ORYSAT
C=CCOC(=O)/C=C/c1nsc2ccc(-n3c(=O)cc(C(F)(F)F)n(C)c3=O)cc12 [Example 566]	5.0
CON(C)C(=O)/C=C/c1nsc2ccc(-n3c(=O)cc(C(F)(F)F)n(C)c3=O)cc12 [Example 565]	2.0
Cc1ccc(OC(C)(C)C(=O)OC(C)C)c(-c2nsc3ccc(-n4c(=O)cc(C(F)(F)F)n(C)c4=O)cc23)c1 [Example 547]	4.0
Cc1nsc2ccc(-n3c(=O)cc(C(F)(F)F)n(CCF)c3=O)cc12 [Example 516]	2.0

Lookup: // fetch Oryza sativa, (L.) Tebonnet herbicidal effect rating ORYSAT for Cc1ccc(OCC(=O)OCC(C)(C)Cc2ccccc2)c(-c2nsc3ccc(-n4c(=O)cc(C(F)(F)F)n(C)c4=O)cc23)c1 [Example 527]
Found: 2.5

Lookup: Query for Oryza sativa, (L.) Tebonnet: what herbicidal effect rating ORYSAT does the record show for CCS(=O)(=O)NC(=O)COc1ccccc1-c1nsc2ccc(-n3c(=O)cc(C(F)(F)F)n(C)c3=O)cc12 [Example 558] ?
Found: 9.0

Lookup: Recall the recorded herbicidal effect rating ORYSAT for C=CCOCC(CC)(COCC=C)COC(=O)COc1ccc(C)cc1-c1nsc2ccc(-n3c(=O)cc(C(F)(F)F)n(C)c3=O)cc12 [Example 521] with Oryza sativa, (L.) Tebonnet and state it.
Found: 0.0

Lookup: Observed herbicidal effect rating ORYSAT on Oryza sativa, (L.) Tebonnet for CC=CCOC(=O)C(C)(C)Oc1ccc(C)cc1-c1nsc2ccc(-n3c(=O)cc(C(F)(F)F)n(C)c3=O)cc12 [Example 529] , please.
Found: 3.0

Lookup: Missing value: herbicidal effect rating ORYSAT, Oryza sativa, (L.) Tebonnet, entry Cn1c(C(F)(F)F)cc(=O)n(-c2ccc3snc(-c4ccccc4OCC(=O)C(C)(C)C)c3c2)c1=O [Example 549] . Fill in?
Found: 4.0

Lookup: Provide the documented herbicidal effect rating ORYSAT with Oryza sativa, (L.) Tebonnet as the system for CCS(=O)(=O)NC(=O)COc1ccc(C)cc1-c1nsc2ccc(-n3c(=O)cc(C(F)(F)F)n(C)c3=O)cc12 [Example 554]
Found: 6.0

Lookup: Param readout= herbicidal effect rating ORYSAT; system= Oryza sativa, (L.) Tebonnet; entry= Cc1ccc(OCC(=O)C(C)(C)C)c(-c2nsc3ccc(-n4c(=O)cc(C(F)(F)F)n(C)c4=O)cc23)c1 [Example 540] ; returns value.
Found: 0.0

Lookup: Identify the measured herbicidal effect rating ORYSAT of Cc1ccc(OCC(=O)c2ccc(Cl)cc2)c(-c2nsc3ccc(-n4c(=O)cc(C(F)(F)F)n(C)c4=O)cc23)c1 [Example 538] for Oryza sativa, (L.) Tebonnet.
Found: 1.0

Lookup: Find the measured herbicidal effect rating ORYSAT: item Cc1ccc(OC(C)(C)C(=O)OCC(F)(F)F)c(-c2nsc3ccc(-n4c(=O)cc(C(F)(F)F)n(C)c4=O)cc23)c1 [Example 545] , target or system Oryza sativa, (L.) Tebonnet.
Found: 4.0

Lookup: What is its herbicidal effect rating ORYSAT for Oryza sativa, (L.) Tebonnet? Entry: C=CS(=O)(=O)NC(=O)COc1ccc(C)cc1-c1nsc2ccc(-n3c(=O)cc(C(F)(F)F)n(C)c3=O)cc12 [Example 553]
Found: 4.0
